Reference for the values: PubChem BioAssay AID1159580

Reported normalized growth values are given for each entry in this list.
- protocol.summary: chemical genetic growth profiling, strain panel (AID 1159580);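 further: tested at 20 µM; growth read once vehicle control cultures reached saturation at 30 °C; 1 = growth at the plate median or of vehicle wells; lower values mean less growth of the strain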
- test.parameters: S. cerevisiae deletion strains, growth OD, locus YBR023C, strain chs3, active compounds read low
The whole screen tested about 5,500 compounds, of which about 2,000 (36%) were called active. Not shown: some 18% with an inconclusive outcome. Some of the results follow.

compound | normalized growth
COc1cc2c(cc1OC)C1Cc3ccc(OC)c(OC)c3CN1CC2 (stereo not given) | 0.968
O=C(O)CN(CC(=O)O)Cc1cc2c(-c3ccccc3C(=O)O)c3cc(CN(CC(=O)O)CC(=O)O)c(=O)cc-3oc2cc1O | 0.981
CCOC(=O)[C@H](CCc1ccccc1)N[C@@H](C)C(=O)N1[C@H](C(=O)O)C[C@@H]2CCC[C@@H]21 | 0.983
N[C@@H](CC(=O)N1CCn2c(nnc2C(F)(F)F)C1)Cc1cc(F)c(F)cc1F | 0.993
COc1ccc(CCN2CCC(Nc3nc4ccccc4n3Cc3ccc(F)cc3)CC2)cc1 | 0.959

----------
- protocol.summary: chemical genetic growth profiling, strain panel (AID 1159580)
- test.parameters: S. cerevisiae deletion strains, growth OD, locus YHR013C, strain ard1
In all, about 5,500 compounds went through this assay and about 2,000 (36%) were called active. Roughly 18% stayed inconclusive and do not appear here. Cut-off read from the data, not from the text of the source: active = normalized growth mostly below about 0.91 (no sharp cut-off); inconclusive = no clear call, values can overlap the other calls; inactive = mostly above about 0.92. Some of the results follow.
Classes used: Y for active, N for inactive

molecule | discrete.label
CC(=O)Oc1c(C)cccc1C(=O)O | N
COc1cc2c(cc1OC)C1Cc3ccc(OC)c(OC)c3CN1CC2 (stereo not drawn) | N
Cc1cccc(Nc2ccccc2C(=O)O)c1C | N
O=c1cc[nH]c(=S)[nH]1 | N
C=C1C(=O)O[C@@H]2C[C@@]3(C)CCC[C@H](C)C3=C[C@H]12 | Y
O=C(Cn1ccnc1[N+](=O)[O-])NCCO | N
NC(N)=NS(=O)(=O)c1ccc(N)cc1 | N
CC1=CC2C(CC1=O)C(C)=CCC2C(C)C (stereo not drawn) | N
Cc1c(S(=O)(=O)O)oc2c1C(=O)C(=O)c1c-2ccc2c1CCCC2(C)C | N
Cc1ccc(Cl)c(Nc2ccccc2C(=O)O)c1Cl | Y
COC(=O)C(C)c1ccc(C(=O)c2cccs2)cc1 (stereo not drawn) | N
CCOC(=O)c1ccc(O)cc1 | N
CCNC(=O)CC[C@H](N)C(=O)O | N

----------
- protocol.summary: chemical genetic growth profiling, strain panel (AID 1159580);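 further: tested at 20 µM; growth read once vehicle control cultures reached saturation at 30 °C; 1 = growth at the plate median or of vehicle wells; lower values mean less growth of the strain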
- test.parameters: S. cerevisiae deletion strains, growth OD, locus YLR384C, strain iki3, active compounds read low
Where a name gives a salt, the structure may show the parent alone. About 2,000 (36%) of roughly 5,500 compounds were called active. About 18% were inconclusive and are not listed. The list shows a part of the results. Where a SMILES comes first, the peptide text is derived from it. The star is where a group is joined. Tfa = O=C(C(F)(F)F)*
Recorded normalized growth values for a group of compounds are listed next.
property.name: normalized growth

compound | result
CC(C)C(=O)Nc1ccc([N+](=O)[O-])c(C(F)(F)F)c1 | 1.03
Cc1cccc(C)c1NC1=NCCCS1 | 0.993
OCCOCCN1CCN(C2=Nc3ccccc3Sc3ccccc32)CC1 | 1.01
CCCCN1CCCCC1C(=O)Nc1c(C)cccc1C (centres undefined) | 0.997
CCCOc1ccc(C(=O)OCCN(CC)CC)cc1N | 1
CC(C(=O)O)c1ccc(C(=O)c2cccs2)cc1 (centres undefined) | 1.01
CCCCN(CCCC)CCCOC(=O)c1ccc(N)cc1 | 0.995
COC(=O)C(O)c1ccccc1 (centres undefined) | 0.98
CCCCOC(=O)c1ccccc1C(=O)OCCCC | 0.99
Nc1ccc(N=Nc2ccccc2)c(N)n1 | 0.972
C[N+]1(C)C2CC(OC(=O)[C@@H](CO)c3ccccc3)CC1C1OC12 (some centres undefined) | 0.97
CCOC(=O)c1ccc(O)cc1 | 1.02
CCCCNc1ccc(C(=O)OCCN(C)C)cc1 | 1.02
COC(=O)[C@@H]1OC(=O)[C@H]2O[C@@]23[C@@]1(C)CCC1[C@@]2(C)CCC(=O)C(C)(C)C2C[C@@H](OC(C)=O)[C@]13C (some centres undefined) | 0.985
CC(C)NNC(=O)c1ccncc1 | 0.995
COC(=O)C(C)c1ccc(C(=O)c2cccs2)cc1 (centres undefined) | 1.01
CC(C)C(NC(=O)C(Cc1ccc(O)cc1)NC(=O)C(NC(=O)C(F)(F)F)C(C)C)C(=O)O (stereo not drawn) (Tfa-Val-Tyr-Val-OH; configuration not given here) | 1
CCOC(=O)Nc1nc2ccccc2[nH]1 | 0.978
Cc1cc(-c2ccccc2)nnc1NCCN1CCOCC1 | 0.976
CC1(C)O[C@H]2[C@H](O)C[C@](O)(C(N)=O)C[C@H]2O1 | 1.02
COC(=O)C1=CCCN(C)C1 | 1.02
CCCC(=O)O[C@]1(C(=O)CO)CCC2[C@@H]3CCC4=CC(=O)CC[C@]4(C)C3[C@@H](O)C[C@@]21C (some centres undefined) | 1.01
Clc1cccc(Cl)c1NC1=NCCN1 | 0.988
O=C(Cn1ccnc1[N+](=O)[O-])NCCO | 1.03

----------
- protocol.summary: chemical genetic growth profiling, strain panel (AID 1159580);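 further: tested at 20 µM; growth read once vehicle control cultures reached saturation at 30 °C; 1 = growth at the plate median or of vehicle wells; lower values mean less growth of the strain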
- test.parameters: S. cerevisiae deletion strains, growth OD, locus YPR025C, strain CCL1, active compounds read low
Among all 5,500 compounds or so, about 2,000 (36%) were called active. Another 18% or so got no clear call; they are omitted. Some of the results follow.
Measured normalized growth, listed per entry for reference.
property.name: normalized growth

molecule | result
Cc1c(C(=O)N(Cc2ccccc2)Cc2cccs2)cnn1-c1ccc(Cl)cc1 | 0.99
FC(F)(F)c1cccc(-n2c(CSCc3cccc4ccccc34)n[nH]c2=S)c1 | 0.992
Cc1cccc(NC(=S)NNC(=O)CSCc2cccc3ccccc23)c1 | 0.99
CC(=O)Nc1ccc(S(=O)(=O)Nc2ccccc2Oc2ccc(Cl)cc2Cl)cc1 | 0.996
Cc1onc(-c2c(Cl)cccc2Cl)c1C(=O)NNc1c(Cl)cccc1Cl | 0.976
Cc1nc(-c2ccc(S(=O)(=O)Nc3ccc(Br)cc3Cl)s2)cs1 | 0.953
CCc1ccn2cc(Nc3ccccc3Cl)nc2c1 | 0.983
OC(=Cc1nc2ccccc2nc1C=C(O)c1ccc(Cl)cc1)c1ccc(Cl)cc1 | 0.979
COC(=O)c1sccc1-c1ccc(/C=C/[N+](=O)[O-])o1 | 0.955
FC(F)(F)c1ccnc(N2CCCN(C(=S)Nc3ccc(Cl)cc3Cl)CC2)n1 | 0.976
Cc1c(-c2ccnn2C(=O)c2ccco2)cnn1-c1ccccc1 | 0.957
Cc1ccc(NS(=O)(=O)c2ccc(Cl)cc2)c(N=Cc2cc(Cl)cc(Cl)c2O)c1 | 0.959
O=C(Nc1ccc(OC(F)(F)F)cc1)N1CCN(c2nc(-c3ccccc3)ns2)CC1 | 1
N#CC(C#N)=Cc1ccc(-c2ccccc2C(F)(F)F)o1 | 0.948
Cc1onc(-c2c(F)cccc2Cl)c1C(=O)NNc1cc(Cl)cc(Cl)c1 | 0.98
O=[N+]([O-])c1ccc(Sc2ssc(=S)c2-c2ccccc2)nc1 | 0.944
O=C(/C=C/Sc1nc2ccccc2s1)c1ccc(Cl)cc1 | 0.972
O=C(Nc1ccc(OC(F)(F)F)cc1)OC1CN(C(c2ccccc2)c2ccccc2)C1 | 1
O=c1c2ccccc2[nH]c(=S)n1-c1cccc(C(F)(F)F)c1 | 0.946
S=c1[nH]nc(Nc2ccc(I)cc2)s1 | 0.863
OC(CN1CCN(c2nc3ccc(Cl)cc3s2)CC1)Cn1ccc2ccccc21 (stereo unspecified) | 0.99
CC(=O)ON=C1c2cc([N+](=O)[O-])ccc2-c2ccc([N+](=O)[O-])cc21 | 0.947
CCCCN(C)C(=O)c1cc([N+](=O)[O-])cc2c1-c1ccc([N+](=O)[O-])cc1C2=C(C#N)C#N | 0.982
O=C(Nc1ccc(Cl)cc1)OCCSc1nc2ccccc2s1 | 0.977
Cc1ccc(NNC(=O)c2c(C)noc2C)cc1Cl | 0.981
ClC1=C(C=Nc2ccc(Cl)cc2)CSc2ccc(Cl)cc21 | 0.935

----------
- protocol.summary: chemical genetic growth profiling, strain panel (AID 1159580);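 further: tested at 20 µM; growth read once vehicle control cultures reached saturation at 30 °C; 1 = growth at the plate median or of vehicle wells; lower values mean less growth of the strain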
- test.parameters: S. cerevisiae deletion strains, growth OD, locus YCL069W, strain vba3, active compounds read low
Hit rate of the full screen: of about 5,500 compounds, about 2,000 (36%) were called active. About 18% were inconclusive and are not listed. The list shows a part of the results.
We begin with a simple list: items and their reported normalized growth.
property.name: normalized growth

compound | result
Cc1ccc(C)c(OCCCC(C)(C)C(=O)O)c1 | 0.987 (inactive)
CC1=CC2C(CC1=O)C(C)=CCC2C(C)C (stereo unspecified) | 1.01 (inactive)
Clc1cccc(Cl)c1NC1=NCCN1 | 0.991 (inactive)
COC(=O)C1=CCCN(C)C1 | 0.988 (inactive)
O=C1C=C2C=C[C@@H]3C[C@@]2(O1)[C@H]1CCCCN31 | 0.974 (inactive)
CC(=O)OC1CCC2(C)C(=CC=C3C2CCC2(C)C3CCC2C(C)/C=C/C(C)C(C)C)C1(C)C (stereo unspecified) | 1.02 (inactive)
